Provide the recorded cAMP activity, Glcg EC50 nM for the entries that follow.
# SYSTEM_UNDER_TEST: human glucagon receptor (GCGR) (human, UniProt P47871 26-477)
# Sequence (P47871 26-477): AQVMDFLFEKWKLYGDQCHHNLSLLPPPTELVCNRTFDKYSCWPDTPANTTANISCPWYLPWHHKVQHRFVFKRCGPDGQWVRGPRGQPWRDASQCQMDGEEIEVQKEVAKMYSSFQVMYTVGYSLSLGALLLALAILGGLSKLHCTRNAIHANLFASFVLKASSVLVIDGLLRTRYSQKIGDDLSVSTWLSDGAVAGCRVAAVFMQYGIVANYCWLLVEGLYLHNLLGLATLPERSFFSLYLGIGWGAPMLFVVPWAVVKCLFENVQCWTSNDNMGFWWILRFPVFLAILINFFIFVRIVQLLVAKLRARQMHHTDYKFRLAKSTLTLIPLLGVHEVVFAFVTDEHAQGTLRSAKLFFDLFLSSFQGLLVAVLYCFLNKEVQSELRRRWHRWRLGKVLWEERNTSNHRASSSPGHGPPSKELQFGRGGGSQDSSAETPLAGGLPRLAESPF
# TEST_SUMMARY: cell-based or functional assay
*1 amine or outer side, *2 acyl side, *3 side chain or, on linkers, in order; H or OH if unused. Primed or numbered codes have the meaning given here. Where no end group is shown, it is not given here. Side-chain parts run from the residue outwards. [ ]: non-standard residue; d: D form. The star is where a group is joined. PEG4′ = 4 PEG units (K(PEGxpalm): Lys with x PEG units and palmitoyl at epsilon N, C-terminal (PEG)4); γGlu = O=C(O)[C@H](CCC(=O)[*:2])N[*:1]; Palmitoyl = CCCCCCCCCCCCCCCC(=O)*
Answers are plain numbers, in nM.

Sample answers from the record:
BINDER	UNITS_SYMBOL	cAMP activity, Glcg EC50 nM
HSQGTFTSDYSKYLDEK([γGlu-Palmitoyl])RAQDFVQWLV[PEG4′] [g810]	nM	0.03
HSQGTFTSDYSKYLDSRKRAQDFVQWLV[PEG4′] (not fully specified (residue 18); printed as HSQGTFTSDYSKYLDSRB1RAQDFVQWLVZ4) [g415]	nM	0.002
HSQGTFTSDYSKYLDSRK([γGlu-Palmitoyl])AQDFVQWLV[PEG4′] [g422]	nM	0.7
HSQGTFTSDYSEYLDSK([γGlu-Palmitoyl])RAQDFVQWLV[PEG4′] [g676]	nM	40

Give the measured cAMP activity, Glcg EC50 nM of HSQGTFTSDYSKK([PEG4′-Palmitoyl])LDSSRARDFVAWLV[PEG4′] [g970] . 0.003
